# Measured on: T1, hIL-7R (Example 11) (human, UniProt P16871 21-239)
# T1 construct: Called full length hIL-7R for the mRNA display and hIL-7R for the Biacore runs; also called full length hIL-7R; human IL-7R
# T1 chain: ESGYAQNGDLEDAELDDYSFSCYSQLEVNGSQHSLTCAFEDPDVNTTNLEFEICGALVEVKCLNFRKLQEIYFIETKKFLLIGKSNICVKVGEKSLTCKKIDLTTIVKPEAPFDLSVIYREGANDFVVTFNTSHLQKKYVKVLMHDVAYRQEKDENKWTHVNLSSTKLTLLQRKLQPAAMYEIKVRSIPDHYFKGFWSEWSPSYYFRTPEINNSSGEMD
# Measurement description: SPR (Biacore), ratio KD of parent 18B1 to KD of variant [cont'd]
// assign condition met if KD Relative to 18B1 falls strictly below 0.9, else condition not met (ties count as condition not met)

Known results for binders:
[[record]]
binder = "18B1 LC L54A (antibody, human IgG1, kappa, V domains shown) VH: EVQLVESGGGLVQPGRSLRLSCAASGFTFDDHAMHWVRQAPGKGLEWVSGISWNSRGIGYADSVKGRFTIFRDNAKNSLYLQMNSLRAEDTALYYCAKDEYSRGYYVLDVWGQGTTVTVSS VL: AIQLTQSPSSLSASVGDRVTITCRASQGISSALAWYQQKPGKAPKLLIYDASSAESGVPSRFSGSGSGTDFTLTISSLQPEDFATYYCQQFNSYPLWITFGQGTRLEIKR"
class = "condition not met"

[[record]]
binder = "18B1 LC S52A (antibody, human IgG1, kappa, V domains shown) VH: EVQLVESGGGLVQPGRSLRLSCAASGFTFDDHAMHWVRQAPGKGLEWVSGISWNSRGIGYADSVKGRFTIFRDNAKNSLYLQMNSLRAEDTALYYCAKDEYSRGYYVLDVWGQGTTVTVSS VL: AIQLTQSPSSLSASVGDRVTITCRASQGISSALAWYQQKPGKAPKLLIYDAASLESGVPSRFSGSGSGTDFTLTISSLQPEDFATYYCQQFNSYPLWITFGQGTRLEIKR"
class = "condition not met"

[[record]]
binder = "18B1 LC S56A (antibody, human IgG1, kappa, V domains shown) VH: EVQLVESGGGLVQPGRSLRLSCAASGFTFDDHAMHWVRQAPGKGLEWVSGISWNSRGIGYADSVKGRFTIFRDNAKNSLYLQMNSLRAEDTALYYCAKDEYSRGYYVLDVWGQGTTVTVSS VL: AIQLTQSPSSLSASVGDRVTITCRASQGISSALAWYQQKPGKAPKLLIYDASSLEAGVPSRFSGSGSGTDFTLTISSLQPEDFATYYCQQFNSYPLWITFGQGTRLEIKR"
class = "condition not met"

[[record]]
binder = "18B1 LC E55A (antibody, human IgG1, kappa, V domains shown) VH: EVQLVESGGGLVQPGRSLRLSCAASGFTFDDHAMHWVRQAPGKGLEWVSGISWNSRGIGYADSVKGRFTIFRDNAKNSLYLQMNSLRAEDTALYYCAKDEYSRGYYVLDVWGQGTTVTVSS VL: AIQLTQSPSSLSASVGDRVTITCRASQGISSALAWYQQKPGKAPKLLIYDASSLASGVPSRFSGSGSGTDFTLTISSLQPEDFATYYCQQFNSYPLWITFGQGTRLEIKR"
class = "condition met"

[[record]]
binder = "18B1 LC S53A (antibody, human IgG1, kappa, V domains shown) VH: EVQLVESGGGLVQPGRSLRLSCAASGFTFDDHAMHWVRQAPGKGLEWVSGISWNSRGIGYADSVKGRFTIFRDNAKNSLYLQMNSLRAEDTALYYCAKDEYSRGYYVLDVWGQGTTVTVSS VL: AIQLTQSPSSLSASVGDRVTITCRASQGISSALAWYQQKPGKAPKLLIYDASALESGVPSRFSGSGSGTDFTLTISSLQPEDFATYYCQQFNSYPLWITFGQGTRLEIKR"
class = "condition met"


Now take the following binder into account.
Qu. KD Relative to 18B1 strictly < 0.9 for this binder? 18B1 LC D50A (antibody, human IgG1, kappa, V domains shown) VH: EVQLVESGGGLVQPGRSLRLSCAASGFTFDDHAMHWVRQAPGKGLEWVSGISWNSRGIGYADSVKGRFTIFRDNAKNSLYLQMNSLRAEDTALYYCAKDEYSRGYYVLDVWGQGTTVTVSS VL: AIQLTQSPSSLSASVGDRVTITCRASQGISSALAWYQQKPGKAPKLLIYAASSLESGVPSRFSGSGSGTDFTLTISSLQPEDFATYYCQQFNSYPLWITFGQGTRLEIKR
Ans. condition met
